Target: T1, dog CD47 (dog, UniProt A0A8I3PM61 19-310)
T1 construct: also called CD47 on dog RBCs
T1 sequence: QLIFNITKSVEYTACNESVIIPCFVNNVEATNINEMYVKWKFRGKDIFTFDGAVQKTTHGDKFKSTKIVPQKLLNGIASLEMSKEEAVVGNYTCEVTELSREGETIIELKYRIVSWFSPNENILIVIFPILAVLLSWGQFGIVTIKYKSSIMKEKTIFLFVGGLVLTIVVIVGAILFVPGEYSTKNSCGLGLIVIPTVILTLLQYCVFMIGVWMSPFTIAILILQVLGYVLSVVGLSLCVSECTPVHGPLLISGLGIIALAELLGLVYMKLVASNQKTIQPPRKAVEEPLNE
Test: FACS, dog RBCs, supernatant 10 ng/ml
test.readout: mean fluorescence relative to chimera
I'd appreciate a reply containing only the number, no unit.

mean fluorescence relative to chimera for Clone 16 (pVxK7b-037-hum16-LC / pVxK7b-037-hum16-HC) (antibody, human IgG1, kappa, V domains shown) VH: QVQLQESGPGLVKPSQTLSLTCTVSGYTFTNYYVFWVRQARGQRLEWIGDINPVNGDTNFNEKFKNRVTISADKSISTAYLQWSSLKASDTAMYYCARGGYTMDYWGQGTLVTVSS VL: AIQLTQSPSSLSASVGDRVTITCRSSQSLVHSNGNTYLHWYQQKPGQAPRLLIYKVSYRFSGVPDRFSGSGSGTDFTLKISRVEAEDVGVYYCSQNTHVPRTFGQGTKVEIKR ?
1.1
